Biological target: EGFR Δ746-750/C797S mutant (Homo sapiens (Human), UniProt P00533, C797S/DEL746-750)
Sequence (P00533 other isoform, or with tags, fused parts or gaps C797S/del 1-668/del 746-750 limits assumed): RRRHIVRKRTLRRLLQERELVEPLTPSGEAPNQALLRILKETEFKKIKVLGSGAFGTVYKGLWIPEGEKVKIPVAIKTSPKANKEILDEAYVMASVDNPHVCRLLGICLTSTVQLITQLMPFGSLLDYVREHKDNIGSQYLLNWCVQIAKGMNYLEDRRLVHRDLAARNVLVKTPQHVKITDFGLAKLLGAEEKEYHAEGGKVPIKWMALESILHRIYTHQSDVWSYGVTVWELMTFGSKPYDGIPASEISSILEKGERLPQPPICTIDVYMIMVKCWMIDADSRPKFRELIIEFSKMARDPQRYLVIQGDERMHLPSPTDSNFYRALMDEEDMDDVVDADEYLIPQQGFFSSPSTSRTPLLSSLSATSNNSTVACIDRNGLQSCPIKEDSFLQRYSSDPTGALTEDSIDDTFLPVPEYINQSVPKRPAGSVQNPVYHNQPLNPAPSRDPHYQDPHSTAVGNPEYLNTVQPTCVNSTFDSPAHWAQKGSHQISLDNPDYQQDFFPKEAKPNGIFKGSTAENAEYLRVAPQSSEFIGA
Assay: HotSpot radiometric kinase assay, EGFR Δ746-750/C797S mutant
Details: 10 μM ATP
endpoint: IC50 (nM)

Previously resolved entries follow.
compound=Cc1nn(C)c2c1/C=C/c1n[nH]c3ccc(cc13)-c1cnn(C)c1O[C@@H](C)CN(C1COC1)C2 quantitative_readout=6.14
compound=CCOc1nn(CCO)c2c1/C=C/c1n[nH]c3ccc(cc13)-c1cnn(CC)c1O[C@@H](C)CN(C)C2 quantitative_readout=1.38
compound="CCOc1nn(CCO)c2c1/C=C/c1n[nH]c3ccc(cc13)-c1cnn(C)c1OC1CCCN(C2)C1C (centres unmarked)" quantitative_readout=40.3
compound=C[C@H]1CN(C)Cc2c(c(O)nn2CCO)/C=C/c2n[nH]c3ccc(cc23)-c2cnn(C)c2O1 quantitative_readout=3.06
compound=Cc1nn(CCO)c2c1/C=C/c1n[nH]c3ccc(cc13)-c1cnn(C)c1O[C@@H](C)CN(C)C2 quantitative_readout=1.96
compound=Cc1c2c(nn1CCN1CCN(C)CC1)CN(C)C[C@H](C)Oc1c(cnn1C)-c1ccc3[nH]nc(c3c1)/C=C/2 quantitative_readout=4.65

[1] Cc1nn([C@H]2C[C@@H](NCCN(C)C)C2)c2c1/C=C/c1n[nH]c3ccc(cc13)-c1cnn(C)c1OCCCO2
[2] CCOc1nn([C@@H](C)CO)c2c1/C=C/c1n[nH]c3cc(F)c(cc13)-c1cnn(C)c1O[C@H](C)CN(C(C)C)C2
Lookup: Which one would you say has the larger IC50 value: 1 , or 2 ? Please indicate the selected item by its label.
Found: 1
(1: 49.2 nM, 2: 4.05 nM)

---

Molecular target: EGFR (D770_N771insNPG) (Homo sapiens (Human), UniProt P00533, INS770NPG)
Sequence (P00533 other isoform, or with tags, fused parts or gaps del 1-668/ins NPG behind 770 limits assumed): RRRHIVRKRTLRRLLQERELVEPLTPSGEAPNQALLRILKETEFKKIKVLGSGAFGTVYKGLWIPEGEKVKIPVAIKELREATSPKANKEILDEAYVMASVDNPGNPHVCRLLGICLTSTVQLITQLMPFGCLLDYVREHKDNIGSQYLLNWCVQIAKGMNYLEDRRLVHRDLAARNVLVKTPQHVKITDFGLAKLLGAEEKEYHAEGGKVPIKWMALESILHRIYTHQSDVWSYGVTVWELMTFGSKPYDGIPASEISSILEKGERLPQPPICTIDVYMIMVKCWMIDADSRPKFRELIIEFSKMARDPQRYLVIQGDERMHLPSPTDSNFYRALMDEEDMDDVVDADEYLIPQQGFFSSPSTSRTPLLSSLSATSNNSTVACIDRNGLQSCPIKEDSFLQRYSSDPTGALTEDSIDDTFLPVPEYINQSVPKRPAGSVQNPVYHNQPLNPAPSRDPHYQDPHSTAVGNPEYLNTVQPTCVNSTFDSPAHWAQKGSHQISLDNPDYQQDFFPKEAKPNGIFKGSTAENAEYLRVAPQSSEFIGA
Test: HotSpot radiometric kinase assay, EGFR (D770_N771insNPG)
Details: 10 μM ATP, read-out: EGFR (Δ770_N771insNPG) IC50
endpoint: IC50 (nM)

Previously resolved entries follow.
compound="Cc1nn(CC(C)(C)O)c2c1/C=C/c1n[nH]c3ccc(cc13)-c1cnn(C)c1OCCCO2 [Example 30]" endpoint=IC50 result_unit=nM quantitative_readout=983
compound="C[C@H]1CN(C)Cc2c(c(O)nn2C)/C=C/c2n[nH]c3ccc(cc23)-c2cnn(C)c2O1 [Example 148]" endpoint=IC50 result_unit=nM quantitative_readout=403

[P] COC(C)(C)c1ccc2c(c1)O[C@@H]1CCN(CCOc3c(cnn3C)-c3ccc4[nH]nc(c4c3)/C=C/2)C1=O [Example 115]
[Q] CCc1nn(C)c2c1/C=C/c1n[nH]c3ccc(cc13)-c1cnn(C)c1OCCCO2 [Ex. 10]
Lookup: Which one would you say has the larger IC50 value: P , or Q ? Please indicate the selected item by its label.
Found: Q

---

Target: UniProtKB P49760
Sequence (P49760 whole entry): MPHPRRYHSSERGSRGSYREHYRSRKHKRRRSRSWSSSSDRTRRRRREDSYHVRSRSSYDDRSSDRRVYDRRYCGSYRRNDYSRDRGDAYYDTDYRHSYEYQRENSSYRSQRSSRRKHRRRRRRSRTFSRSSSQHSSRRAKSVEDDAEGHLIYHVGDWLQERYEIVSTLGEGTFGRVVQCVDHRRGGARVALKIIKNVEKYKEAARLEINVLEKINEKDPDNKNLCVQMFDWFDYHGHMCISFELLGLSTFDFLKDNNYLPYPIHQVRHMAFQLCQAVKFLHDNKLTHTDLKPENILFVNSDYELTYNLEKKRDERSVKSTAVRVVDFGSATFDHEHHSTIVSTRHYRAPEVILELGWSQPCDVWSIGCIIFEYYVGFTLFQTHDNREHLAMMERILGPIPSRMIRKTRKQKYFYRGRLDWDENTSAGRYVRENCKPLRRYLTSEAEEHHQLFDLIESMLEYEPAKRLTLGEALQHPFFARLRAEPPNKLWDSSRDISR
pIC50: −log10 of the molar value.
endpoint: pIC50

Previously resolved entries follow.
compound="Cc1nn(CCO)c2c1/C=C/c1n[nH]c3cc(F)c(cc13)-c1cnn(C)c1O[C@@H](C)CN(C)C2 [Example 116]" quantitative_readout=10.40
compound="CCOc1nn(CCO)c2c1/C=C/c1n[nH]c3ccc(cc13)-c1cnn(C)c1O[C@@H](CC)CN(C)C2 [Example 260]" quantitative_readout=8.28
compound="CC(C)Oc1nn(CCO)c2c1/C=C/c1n[nH]c3ccc(cc13)-c1cnn(C)c1O[C@@H](CO)CN(C)C2 [Example 258]" quantitative_readout=9.64
compound="CCN1Cc2c(c(OC(C)C)nn2C[C@H](C)O)/C=C/c2n[nH]c3ccc(cc23)-c2cnn(C)c2O[C@@H](C)C1 [Ex. 280]" quantitative_readout=9.62
compound="CC(C)Oc1nn(CCO)c2c1/C=C/c1n[nH]c3ccc(cc13)-c1cnn(C)c1O[C@@H](C)CN(C)C2 [Example 147]" quantitative_readout=10.70

[I] CCN1Cc2c(c(OC(C)C)nn2C[C@H](C)O)/C=C/c2n[nH]c3ccc(cc23)-c2cnn(C)c2O[C@H](C)C1 [Example 227]
[II] Cc1nn(C)c2c1/C=C/c1n[nH]c3ccc(cc13)-c1cnn(C)c1OCCN(C)C2 [Example 43]
Lookup: Between I and II , which one shows the smaller pIC50 number? Please indicate the selected item by its label.
Found: I

[I] CCOc1nn(C)c2c1/C=C/c1n[nH]c3ccc(cc13)-c1cnn(C)c1O[C@@H]1CCN(C2)C1 [Example 236]
[II] CC(C)Oc1nn([C@@H](C)CO)c2c1/C=C/c1n[nH]c3cc(F)c(cc13)-c1cnn(C)c1O[C@@H](C)CN(C)C2 [Example 200]
[III] CCOc1nn(CCO)c2c1/C=C/c1n[nH]c3ccc(cc13)-c1cnn(CC)c1O[C@@H](C)CN(C)C2 [Example 168]
[IV] CCOc1nn(CCO)c2c1/C=C/c1n[nH]c3ccc(cc13)-c1cnn(C)c1O[C@H](C)CNC2 [Example 197]
[V] Cc1nn(C)c2c1/C=C/c1n[nH]c3ccc(cc13)-c1cnn(C)c1O[C@@H](C)CN(C)[C@H]2C (single isomer, unassigned) [Example 145]
Lookup: Arrange these 5 compounds in increasing order of pIC50. When ranking, write the labels in the order the request describes.
Found: IV, I, II, III, V

[I] CC(C)Oc1nn(CCO)c2c1/C=C/c1n[nH]c3ccc(cc13)-c1cnn(C)c1O[C@@H](C)C(=O)N(C)C2 [Example 220]
[II] C[C@H]1CN(C)Cc2c(c(OCC(F)(F)F)nn2CCO)/C=C/c2n[nH]c3cc(F)c(cc23)-c2cnn(C)c2O1 [Example 211]
Lookup: Which one would you say has the larger pIC50 value: I , or II ? Please indicate the selected item by its label.
Found: I
(I: 8.05, II: 6.94)

[A] CCOc1nn(CCO)c2c1/C=C/c1n[nH]c3cc(F)c(cc13)-c1cnn(C)c1O[C@@H]1CCCN(C2)C1 [Example 191]
[B] CCOc1nn(C)c2c1/C=C/c1n[nH]c3ccc(cc13)-c1cnn(C)c1OC1CN(C2)C1 [Example 238]
Lookup: Which one would you say has the larger pIC50 value: A , or B ? Please indicate the selected item by its label.
Found: B
(B: 8.61, A: 8.36)

[P] Cc1c2c(nn1C)CN(C)C[C@H](C)Oc1c(cnn1C)-c1ccc3[nH]nc(c3c1)/C=C/2 [Example 58]
[Q] C[C@H]1CN(C)Cc2c(c(OCC#N)nn2C)/C=C/c2n[nH]c3ccc(cc23)-c2cnn(C)c2O1 [Example 163]
[R] CCN1Cc2c(c(OC(C)C)nn2CC(C)=O)/C=C/c2n[nH]c3ccc(cc23)-c2cnn(C)c2O[C@@H](C)C1 [Example 263]
Lookup: Arrange these 3 compounds in increasing order of pIC50. When ranking, write the labels in the order the request describes.
Found: R, P, Q
(R: 9.15, P: 9.42, Q: 10.22)

[A] Cc1nn(C)c2c1/C=C/c1n[nH]c3ccc(cc13)-c1cnn(C)c1O[C@@H]1CCN(C2)C1 [Example 167]
[B] CCOc1nn(CCO)c2c1/C=C/c1n[nH]c3cc(F)c(cc13)-c1cnn(C)c1O[C@@H](C)CN(C)C2 [Example 172]
Lookup: Between A and B , which one shows the smaller pIC50 number? Please indicate the selected item by its label.
Found: A

[I] C[C@H]1CN(C)Cc2c(c(C#N)nn2C)/C=C/c2n[nH]c3ccc(cc23)-c2cnn(C)c2O1 [Example 159]
[II] CCOc1nn(CCO)c2c1/C=C/c1n[nH]c3ccc(cc13)-c1cnn(C)c1O[C@@H](C)CN(CC)C2 [Example 177]
[III] Cc1nn(CCO)c2c1/C=C/c1n[nH]c3ccc(cc13)-c1cnn(C)c1O[C@@H](C)CN(C(C)C)C2 [Example 114]
[IV] CCN1Cc2c(c(OC(C)C)nn2CC(C)(C)O)/C=C/c2n[nH]c3ccc(cc23)-c2cnn(C)c2O[C@@H](C)C1 [Example 262]
Lookup: Arrange these 4 compounds in increasing order of pIC50. When ranking, write the labels in the order the request describes.
Found: IV, II, III, I
(IV: 9.31, II: 9.64, III: 9.92, I: 10.15)

[I] CCOc1noc2c1/C=C/c1n[nH]c3ccc(cc13)-c1cnn(C)c1O[C@@H](C)CN(C)C2 [Example 183]
[II] Cc1nn(CCO)c2c1/C=C/c1n[nH]c3ccc(cc13)-c1cnn(C)c1O[C@@H](C)CN(C)C2 [Example 61]
[III] CCOc1nn(C)c2c1/C=C/c1n[nH]c3cc(F)c(cc13)-c1cnn(C)c1OC1CCCN(C2)C1 (stereo in doubt) [Example 178]
Lookup: List items by pIC50 in falling order. When ranking, write the labels in the order the request describes.
Found: II, I, III
(II: 10.22, I: 9.62, III: 8.62)

Numbers sourced from patent US20250353864A1.
